Assay: Displacement of casein from calpain 1 in porcine erythrocytes
Assay type: cell-based, Sus scrofa
Kindly state pIC50 for each of the entries shown.
One number for each entry, as −log10 of the molar value.

Would you please look over these solved cases?
COC(=O)[C@@H](NC(=O)[C@H](Cc1ccccc1)NC(=O)c1ccccc1-c1ccccc1C(=O)N[C@@H](Cc1ccccc1)C(=O)Nc1ccccc1-c1ccccc1NC(=O)[C@H](C)NC(=O)OCC1c2ccccc2-c2ccccc21)C(C)C    4.39
COC(=O)[C@H](Cc1ccccc1)NC(=O)[C@@H](NC(=O)c1ccccc1-c1ccccc1C(=O)N[C@H](C(=O)N[C@@H](Cc1ccccc1)C(=O)OC)C(C)C)C(C)C    7.62

Record pIC50 per entry; entries follow.
1. O=C(N[C@@H](Cc1ccc(O)cc1)C(=O)O)c1ccccc1-c1ccccc1C(=O)N[C@@H](Cc1ccc(O)cc1)C(=O)O
2. COC(=O)[C@H](Cc1ccccc1)NC(=O)c1ccccc1-c1ccccc1C(=O)N[C@@H](Cc1ccccc1)C(=O)OC

Result:
[3.70, 7.19]

----------
Please respond with reported pIC50 for every item in the list.
Test: Displacement of casein from calpain 1 in porcine erythrocytes
Assay type: cell-based, Sus scrofa
Numbers only, as −log10 of the molar value.

See these solved cases before continuing.
COC(=O)[C@@H](NC(=O)c1ccccc1-c1ccccc1C(=O)N[C@H](C(=O)OC)C(C)C)C(C)C    5.15
COC(=O)[C@H](Cc1c[nH]c2ccccc12)NC(=O)c1ccccc1-c1ccccc1C(=O)N[C@@H](Cc1c[nH]c2ccccc12)C(=O)OC    7.43
O=C(N[C@@H](Cc1ccccc1)C(=O)O)c1ccccc1-c1ccccc1C(=O)N[C@@H](Cc1ccccc1)C(=O)O    7.15
C=CCO[C@H]1O[C@H](CNC(=O)c2ccccc2-c2ccccc2C(=O)N[C@@H](Cc2ccc(O)cc2)C(=O)OC)C=C[C@@H]1CC(=O)N[C@@H](Cc1ccccc1)C(=O)N[C@@H](CC(C)C)C(=O)NC    3.94
COC(=O)[C@H](Cc1ccccc1)NC(=O)[C@H](Cc1ccccc1)NC(=O)c1ccccc1-c1ccccc1C(=O)N[C@@H](Cc1ccccc1)C(=O)N[C@@H](Cc1ccccc1)C(=O)OC    7.01

Continue with the next molecule.
Q: // returns reported pIC50 for input `COC(=O)[C@H](Cc1ccccc1)NC(=O)[C@H](CCSC)NC(=O)c1ccccc1-c1ccccc1C(=O)N[C@@H](CCSC)C(=O)N[C@@H](Cc1c[nH]c2ccccc12)C(=O)OC`
Result: 4.11

----------
Molecular target: Calpain small subunit 1 (Sus scrofa)
Sequence (P04574 whole entry): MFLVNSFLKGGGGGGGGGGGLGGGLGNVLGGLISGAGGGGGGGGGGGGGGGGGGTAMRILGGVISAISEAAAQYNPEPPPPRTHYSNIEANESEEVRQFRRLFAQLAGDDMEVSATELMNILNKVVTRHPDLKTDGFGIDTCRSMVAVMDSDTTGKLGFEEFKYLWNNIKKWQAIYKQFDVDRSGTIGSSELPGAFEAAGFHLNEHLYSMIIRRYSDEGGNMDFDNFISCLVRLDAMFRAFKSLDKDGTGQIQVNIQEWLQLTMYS
Test: Ability to displace labelledcasein from calpain I in porcine erythrocytes; Noninhibitor
Assay type: cell-based
ENDPOINT NAME: IC50

Below are worked cases with known answers.
COC(=O)[C@H](Cc1c[nH]cn1)NC(=O)c1ccccc1-c1ccccc1C(=O)N[C@@H](Cc1c[nH]cn1)C(=O)OC    No inhibition
COC(=O)[C@H](Cc1ccccc1)NC(=O)c1ccccc1-c1ccccc1C(=O)O    No inhibition
COC(=O)[C@H](Cc1ccc(O)cc1)NC(=O)c1ccccc1-c1ccccc1C(=O)N[C@@H](Cc1ccc(O)cc1)C(=O)OC    No inhibition
CCC(C)[C@H](NC(=O)c1ccccc1-c1ccccc1C(=O)N[C@H](C(=O)OC)C(C)CC)C(=O)OC (stereo not given in full)    No inhibition

Please turn your attention to the following entry.
Q: Item `COC(=O)[C@H](C)NC(=O)c1ccccc1-c1ccccc1C(=O)N[C@@H](C)C(=O)OC` has what recorded IC50?
Result: No inhibition
